SYSTEM TESTED: HGF (hepatocyte growth factor/scatter factor) (UniProt P14210;P14210 P14210:32-494,P14210:495-728)
Sequence (P14210 32-494, chain 1 of 2): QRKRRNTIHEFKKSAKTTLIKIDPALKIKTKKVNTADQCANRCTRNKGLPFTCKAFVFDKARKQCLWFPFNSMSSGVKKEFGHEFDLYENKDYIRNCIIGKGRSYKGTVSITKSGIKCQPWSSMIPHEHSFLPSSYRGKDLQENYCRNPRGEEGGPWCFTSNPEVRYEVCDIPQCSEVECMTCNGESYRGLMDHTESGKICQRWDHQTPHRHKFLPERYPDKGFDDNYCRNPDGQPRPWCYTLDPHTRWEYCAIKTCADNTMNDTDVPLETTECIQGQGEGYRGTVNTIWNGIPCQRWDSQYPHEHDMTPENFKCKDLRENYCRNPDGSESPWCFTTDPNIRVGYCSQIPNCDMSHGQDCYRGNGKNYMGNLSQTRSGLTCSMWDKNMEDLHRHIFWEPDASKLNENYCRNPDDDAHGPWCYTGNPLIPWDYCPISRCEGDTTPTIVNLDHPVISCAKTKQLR
Sequence (P14210 495-728, chain 2 of 2): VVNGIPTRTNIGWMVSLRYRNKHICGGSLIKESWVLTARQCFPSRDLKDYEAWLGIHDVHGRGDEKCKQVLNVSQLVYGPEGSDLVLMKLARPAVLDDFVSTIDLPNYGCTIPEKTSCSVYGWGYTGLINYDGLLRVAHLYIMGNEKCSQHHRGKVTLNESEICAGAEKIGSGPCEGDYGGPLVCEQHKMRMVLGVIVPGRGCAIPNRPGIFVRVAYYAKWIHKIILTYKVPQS
PROCEDURE SUMMARY: filter; HBSMC, 37C
STUDY CONDITIONS: tags: R&D Systems
ENDPOINT NAME: Kd (pM)
Express your answer in pM, writing the number without its unit.

Solved entries:
Query: For 8-174 (ssRNA, 2'-F pyrimidines) RNA: GGGAGGACGAUGCGGUCGAGCUUCUGAGUUAAACUGGGGCCUCCUCAGACGACUCGCCCGA , what is its reported Kd?
Result: 230

Query: Similarly, 10-49 (ssRNA, 2'-F pyrimidines) RNA: GGGAGAUAAGAAUAAACGCUCAACCCGACCUCCUGUAACUGGUUGAGGCACUAUUCGACAGGAGGCUCACAACAGGC ?
Result: 240

Query: Ok, now 11-6 (ssRNA, 2'-F pyrimidines) RNA: GGGAGGACGAUGCGGGACGCGUUGAUUCAUCGUCUUAUCCUGCUGCAGACGACUCGCCCGA
Result: 240

***
Query: Data request, read-out Kd, for 11-224 (ssRNA, 2'-F pyrimidines) RNA: GGGAGGACGAUGCGGACAGCGGCGACUAGCCUGUUCAUGCCUGCCCAGACGACUCGCCCGA
Result: 110

Query: What would you report for 11-107 (ssRNA, 2'-F pyrimidines) RNA: GGGAGGACGAUGCGGGUUCUGUGUGUCCACGUUCUUACCCCUGUGCAGACGACUCGCCCGA ?
Result: 140
